pIC50: −log10 of the molar value.
Several reports have described pIC50 for MALT1 (Homo sapiens, UniProt Q9UDY8); a selection of those results is presented here.

Some solved entries appear below for comparison.
> print(dat)
                                 mol.smiles                        assayed.target  observed.result
1  Cn1nnc2c(-c3nsc(C(=O)Nc4cnc(-n5nccn5)c(C#N)c4)c3C3CC3)cccc21  MALT1 (Homo sapiens, UniProt Q9UDY8)           ≥ 6.40
2  Cc1nc2c(C3CC3)c(NC(=O)Nc3ccc(OC(F)F)c(Cl)c3)cnc2s1  MALT1 (Homo sapiens, UniProt Q9UDY8)     7.00 to 7.29
3  CCc1c(NC(=O)Nc2ccc(OC)c(Cl)c2)cnc2sc(C)nc12  MALT1 (Homo sapiens, UniProt Q9UDY8)     7.30 to 9.00

Kindly consider the entry below.
IN: Query for MALT1 (Homo sapiens, UniProt Q9UDY8): what pIC50 does the record show for "Cn1nc(-c2cccn3nnnc23)c(C(F)(F)F)c1C(=O)Nc1ccnc(C(F)(F)F)c1" ?
OUT: 5.00 to 5.60

====

Below: compounds with pIC50 recorded for UniProtKB Q9UDY8 in separate published works.
pIC50: −log10 of the molar value.

> print(dat)
                                   compound    assayed.target  observed.result
1  CN(C(=O)[C@H]1C[C@H](C(=O)O)C1)[C@@H](c1ccc(Nc2cnn(-c3ccccc3)c2C(F)(F)F)cc1)C(F)(F)F  UniProtKB Q9UDY8           > 7.00

IN: Given the entry "Cn1nc(-c2cncc3nccn23)c(C(F)(F)F)c1C(=O)Nc1ccnc(C(F)(F)F)c1" , what pIC50 was observed with UniProtKB Q9UDY8?
OUT: 5.00 to 5.60

IN: What measured pIC50 is associated with COC(C)c1c(NC(=O)Nc2cnc(-n3cnnn3)c(C(F)(F)F)c2)cnc2sc(C)nc12 (single isomer, unassigned) on UniProtKB Q9UDY8?
OUT: 7.30 to 9.00

IN: Requested read-out pIC50, target or system UniProtKB Q9UDY8, entry "COc1nc2cccc(-c3nn(C)c(C(=O)Nc4ccnc(C(F)(F)F)c4)c3C(F)(F)F)c2s1"
OUT: < 5.00

IN: Field: pIC50 (UniProtKB Q9UDY8). Entry: "Cn1ccc2cc(NC(=O)c3snc(-c4ccccc4)c3C3CC3)ccc2c1=O"
OUT: < 5.60

====

Below are IC50 measurements against MALT1 (Homo sapiens) drawn from the literature.

> print(dat)
                                   molecule  observed.result
1  CO[C@@H](C)c1c(Nc2ccc([C@H](N(C)C(=O)C3CCN(C(C)=O)C3)C(F)(F)F)cc2)cnc2nc(Cl)nn12 (stereo partly drawn)   100 to 1000 nM
2  CO[C@@H](C)c1c(Nc2ccc([C@H](N(C)C(=O)C3CCN(C(C)=O)CC3)C(F)(F)F)cc2)cnn1-c1ccccn1         < 100 nM

IN: Request the reported IC50 associated with "Cn1nc(-c2cccc3nccnc23)c(C(F)(F)F)c1C(=O)Nc1ccnc(C(F)(F)F)c1"
OUT: 500 to 2500 nM

====

Please find below IC50 data on MALT1 (Homo sapiens, UniProt Q9UDY8) compiled from the literature.
Sequence (Q9UDY8 whole entry): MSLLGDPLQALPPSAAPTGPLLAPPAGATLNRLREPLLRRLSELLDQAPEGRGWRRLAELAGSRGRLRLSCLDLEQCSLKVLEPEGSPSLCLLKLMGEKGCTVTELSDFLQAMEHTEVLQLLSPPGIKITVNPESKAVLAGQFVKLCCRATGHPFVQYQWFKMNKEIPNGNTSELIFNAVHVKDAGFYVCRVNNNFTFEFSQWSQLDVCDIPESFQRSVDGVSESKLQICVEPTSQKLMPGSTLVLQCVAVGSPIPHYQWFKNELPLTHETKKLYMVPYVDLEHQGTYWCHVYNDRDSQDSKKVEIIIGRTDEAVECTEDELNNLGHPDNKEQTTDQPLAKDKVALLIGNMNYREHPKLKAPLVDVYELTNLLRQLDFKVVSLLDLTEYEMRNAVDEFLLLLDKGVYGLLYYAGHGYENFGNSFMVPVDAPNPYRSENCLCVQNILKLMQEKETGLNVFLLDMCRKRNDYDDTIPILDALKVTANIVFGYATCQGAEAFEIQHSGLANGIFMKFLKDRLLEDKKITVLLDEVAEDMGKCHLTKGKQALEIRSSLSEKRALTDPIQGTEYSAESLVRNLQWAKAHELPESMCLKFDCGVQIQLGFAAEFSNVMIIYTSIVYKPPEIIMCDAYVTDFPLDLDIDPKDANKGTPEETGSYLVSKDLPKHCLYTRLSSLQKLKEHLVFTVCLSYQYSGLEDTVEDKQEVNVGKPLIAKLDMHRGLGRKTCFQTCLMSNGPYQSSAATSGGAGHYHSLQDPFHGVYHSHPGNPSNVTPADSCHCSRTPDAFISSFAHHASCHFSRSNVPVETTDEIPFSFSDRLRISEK

Solved cases below.
> print(dat)
                                 mol.smiles                        assayed.target  observed.result
1  O=C(Nc1ccnc(C(F)(F)F)c1)c1snc(-c2cncc(F)c2)c1C1CC1  MALT1 (Homo sapiens, UniProt Q9UDY8)         ≤ 400 nM
2  O=C(Nc1cnc(C(=O)N2CC(O)C2)c(Cl)c1)c1snc(-c2cccn3nccc23)c1C1CC1  MALT1 (Homo sapiens, UniProt Q9UDY8)         ≤ 400 nM
3  Cn1nc(-c2ccccc2)c(C(F)(F)F)c1C(=O)Nc1cnc(-n2nccn2)c(C(F)(F)F)c1  MALT1 (Homo sapiens, UniProt Q9UDY8)         < 500 nM

IN: What measured IC50 is associated with "CC(C)c1c(Nc2ccc([C@H](N(C)C(=O)[C@H]3CC[C@H](C(=O)O)CC3)C(F)(F)F)cc2)cnc2nc(Cl)nn12" on MALT1 (Homo sapiens, UniProt Q9UDY8)?
OUT: < 100 nM

IN: Query IC50 on MALT1 (Homo sapiens, UniProt Q9UDY8) for "Cn1nc(-c2cccc3occc23)c(C(F)(F)F)c1C(=O)Nc1cnc(-n2nccn2)c(C(F)(F)F)c1"
OUT: < 500 nM

IN: Notebook entry, MALT1 (Homo sapiens, UniProt Q9UDY8) assay: IC50 of "Cc1cc(NC(=O)c2snc(-c3ccccc3)c2C2CC2)cn(C)c1=O" = ?
OUT: > 2500 nM
